Please provide measured Population Pyknosed Nuclei (%) for the entries that follow.
Tested on: U2OS
test.protocol: Multiplex assay against U2OS
Format: toxicity, cell-based
assay.context: human, 12 h, 1 µM, compound concentration 1 uM, replicate 2
Answer with a number only, understood to be in %.

## Task Query: Population Pyknosed Nuclei (%); subject: CN1CCC(C(=O)c2cccc(NC(=O)c3c(F)cc(F)cc3F)n2)CC1
## Result 7

## Task Query: Population Pyknosed Nuclei (%); subject: Cl.Cl.OCCOCCN1CCN(C(c2ccccc2)c2ccc(Cl)cc2)CC1 (centres undefined) [HYDROXYZINE HYDROCHLORIDE]
## Result 7

## Task Query: Population Pyknosed Nuclei (%); subject: C[C@@H]1CC(=O)Nc2cccc(-c3ccc4c(c3)c(-c3cnn(C)c3)nn4C)c2N1
## Result 7

## Task Query: Population Pyknosed Nuclei (%); subject: CC(C)(C)c1ccc(CSc2cnn(C(C)(C)C)c(=O)c2Cl)cc1
## Result 7

## Task Query: Population Pyknosed Nuclei (%); subject: CN1CCN(c2ccc(Nc3c4ccccc4nc4ccccc34)cc2)CC1.Cl.Cl.O
## Result 7

## Task Query: Population Pyknosed Nuclei (%); subject: CSc1nc(NC2CCCC2)c([N+](=O)[O-])c(NC2CCCC2)n1
## Result 5

## Task Query: Population Pyknosed Nuclei (%); subject: Cc1c(Cc2ccc3ccccc3n2)c2cc(F)ccc2n1CC(=O)O
## Result 6

## Task Query: Population Pyknosed Nuclei (%); subject: CCCCCCNC(=O)Nc1ccc(S(=O)(=O)Nc2ccc(CCNC[C@H](O)COc3ccc(O)cc3)cc2)cc1
## Result 5

## Task Query: Population Pyknosed Nuclei (%); subject: COc1ccc2c(c1OCc1ccccc1)C[C@@H](C(=O)O)N(C(=O)C(c1ccccc1)c1ccccc1)C2
## Result 5

* * *

Test system: Fibroblast
test.protocol: Multiplex assay against human fibroblast
Type: toxicity, cell-based
assay.context: 12 h, 1 µM, compound concentration 1 uM, replicate 2
measure.name: Population Hoechst High Intensity Objects (%)
Answer with a number only, understood to be in %.

## Task Query: Population Hoechst High Intensity Objects (%); subject: CCCCCCNC(=O)Nc1ccc(S(=O)(=O)Nc2ccc(CCNC[C@H](O)COc3ccc(O)cc3)cc2)cc1 [L-755507]
## Result 3

## Task Query: Population Hoechst High Intensity Objects (%); subject: CCCCC[C@H](O)/C=C/[C@H]1[C@H](O)CC(=O)[C@@H]1CCCCCCC(=O)O [ALPROSTADIL]
## Result 4

## Task Query: Population Hoechst High Intensity Objects (%); subject: CC(C)(C)c1ccc(CSc2cnn(C(C)(C)C)c(=O)c2Cl)cc1 [PYRIDABEN]
## Result 4

## Task Query: Population Hoechst High Intensity Objects (%); subject: Cc1ccc(OCC(O)C(C)NC(C)C)c2c1CCC2.Cl (centres undefined)
## Result 9

## Task Query: Population Hoechst High Intensity Objects (%); subject: O=c1ccc2ccc(OCCCCN3CCN(c4cccc5sccc45)CC3)cc2[nH]1 [BREXPIPRAZOLE]
## Result 5

## Task Query: Population Hoechst High Intensity Objects (%); subject: C[C@@H]1CC(=O)Nc2cccc(-c3ccc4c(c3)c(-c3cnn(C)c3)nn4C)c2N1
## Result 5

## Task Query: Population Hoechst High Intensity Objects (%); subject: COc1c(Nc2ccc(S(C)(=O)=O)nc2C)ncnc1OC1CCN(C(=O)OC(C)C)CC1 [ADP-597]
## Result 4

## Task Query: Population Hoechst High Intensity Objects (%); subject: CN(C)C/C=C/C(=O)Nc1ccc(C(=O)N2CCCC(Nc3ncc(Cl)c(-c4c[nH]c5ccccc45)n3)C2)cc1 (centres undefined)
## Result 6

## Task Query: Population Hoechst High Intensity Objects (%); subject: COc1cc(Nc2ncc3c(n2)-c2ccc(Cl)cc2C(c2c(F)cccc2OC)=NC3)ccc1C(=O)O [ALISERTIB]
## Result 8

## Task Query: Population Hoechst High Intensity Objects (%); subject: O=C(Nc1cc(-c2ccccc2)nn1-c1ccccc1F)c1ccc([N+](=O)[O-])cc1
## Result 8

## Task Query: Population Hoechst High Intensity Objects (%); subject: O=c1nc2[nH]c3ccccc3nc-2c(=O)[nH]1 [ALLOXAZINE]
## Result 3

## Task Query: Population Hoechst High Intensity Objects (%); subject: CN1CCN2c3ccccc3Cc3ccccc3C2C1.Cl (centres undefined) [MIANSERIN HYDROCHLORIDE]
## Result 4

## Task Query: Population Hoechst High Intensity Objects (%); subject: COc1ccc2[nH]c(I)c(CCNC(C)=O)c2c1 [IODOMELATONIN]
## Result 5

## Task Query: Population Hoechst High Intensity Objects (%); subject: CN1C[C@H](C(=O)N[C@]2(C)O[C@@]3(O)[C@@H]4CCCN4C(=O)[C@H](Cc4ccccc4)N3C2=O)C[C@@H]2c3cccc4[nH]cc(c34)C[C@H]21.CS(=O)(=O)O [DIHYDROERGOTAMINE MESYLATE]
## Result 7

## Task Query: Population Hoechst High Intensity Objects (%); subject: COc1cc2nc(N3CCN(C(=O)COc4c(OC)cccc4C(C)C)CC3)nc(N)c2cc1OC.Cl.Cl
## Result 9

## Task Query: Population Hoechst High Intensity Objects (%); subject: COCCn1c(C)c(C)s/c1=N\C(=O)C1C(C)(C)C1(C)C
## Result 4

## Task Query: Population Hoechst High Intensity Objects (%); subject: COc1cc2nc(N3CCN(C(=O)c4ccco4)CC3)nc(N)c2cc1OC.Cl [PRAZOSIN HYDROCHLORIDE]
## Result 4

## Task Query: Population Hoechst High Intensity Objects (%); subject: N[C@](CC1c2ccccc2Oc2ccccc21)(C(=O)O)[C@H]1C[C@@H]1C(=O)O
## Result 1

## Task Query: Population Hoechst High Intensity Objects (%); subject: O=C(NCCNCC(O)COc1ccc(O)cc1)N1CCOCC1.O=C(NCCNCC(O)COc1ccc(O)cc1)N1CCOCC1.O=C(O)/C=C/C(=O)O (centres undefined) [XAMOTEROL FUMARATE]
## Result 4
